This collection of values is drawn from patent US20230235012A1.

Reported MFI is given for each of the following binders.
- tested-system: T1, human ICOS, full-length, expressed on transfected Expi293 cells (human, UniProt Q9Y6W8 21-199)
- T1 construct: whole, on cells
- T1 sequence (looked up): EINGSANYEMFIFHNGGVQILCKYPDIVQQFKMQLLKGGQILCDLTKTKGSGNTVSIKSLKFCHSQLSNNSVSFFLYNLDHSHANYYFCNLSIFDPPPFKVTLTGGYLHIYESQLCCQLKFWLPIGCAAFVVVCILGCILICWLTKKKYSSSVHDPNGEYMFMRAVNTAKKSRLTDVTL
- procedure-summary: flow cytometry, 100 nM, Expi293 cells with human ICOS
Numbers only; they are read as MFI.

binder: variant ICOSL IgV-Fc fusion N52R/N57L/Q100S (Fc fusion) DTQEKEVRAMVGSDVELSCACPEGSRFDLNDVYVYWQTSESKTVVTYHIPQRSSLELVDSRYRNRALMSPAGMLRGDFSLRLFNVTPQDEQKFHCLVLSSSLGFQEVLSVEVTLHVAANFSVGSGGGGSEPKSSDKTHTCPPCPAPEAEGAPSVFLFPPKPKDTLMISRTPEVTCVVVDVSHEDPEVKFNWYVDGVEVHNAKTKPREEQYNSTYRVVSVLTVLHQDWLNGKEYKCKVSNKALPAPIEKTISKAKGQPREPQVYTLPPSREEMTKNQVSLTCLVKGFYPSDIAVEWESNGQPENNYKTTPPVLDSDGSFFLYSKLTVDKSRWQQGNVFSCSVMHEALHNHYTQKSLSLSPG
unit-name: MFI
MFI: 231000

Would you kindly look at the next entry?
Notebook: variant ICOSL IgV-Fc fusion N52S/N57M/Q100S (Fc fusion) DTQEKEVRAMVGSDVELSCACPEGSRFDLNDVYVYWQTSESKTVVTYHIPQSSSLEMVDSRYRNRALMSPAGMLRGDFSLRLFNVTPQDEQKFHCLVLSSSLGFQEVLSVEVTLHVAANFSVGSGGGGSEPKSSDKTHTCPPCPAPEAEGAPSVFLFPPKPKDTLMISRTPEVTCVVVDVSHEDPEVKFNWYVDGVEVHNAKTKPREEQYNSTYRVVSVLTVLHQDWLNGKEYKCKVSNKALPAPIEKTISKAKGQPREPQVYTLPPSREEMTKNQVSLTCLVKGFYPSDIAVEWESNGQPENNYKTTPPVLDSDGSFFLYSKLTVDKSRWQQGNVFSCSVMHEALHNHYTQKSLSLSPG , MFI read as 312000
